Biological target: Smooth muscle strips of the urinary bladder (carbachol contraction)
Experiment: Functional in vitro study: antagonism of carbachol-induced contraction of urinary bladder smooth muscle strips
Conditions: guinea pig urinary bladder strips, carbachol agonist, 60 min incubation with antagonist; read-out: KH bladder
Counter-ions that a name gives are not always drawn.
resultType: Kd
Could you give the number and then its unit, please?

// field: Kd; key: Cc1ccc(O)c(C(CCN(C(C)C)C(C)C)c2ccccc2)c1 (single isomer, unassigned; (+)) [(A), hydrochloride] ; value = 3 nM

CC(C)N(CCC(c1ccccc1)c1cc(CO)ccc1O)C(C)C (stereo not drawn) [(D)] yielded Kd of 4.1 nM

Summary for this compound, CC(C)N(CCC(c1ccccc1O)c1cc(Cl)ccc1O)C(C)C (single isomer, unassigned; (+)) [(C), hydrochloride] : Kd is 2.6 nM

---

Give pKi for every item shown.
Biological target: muscarinic receptor (cerebral cortex)
Assay: Muscarinic receptor binding, (−)3H-QNB competition, cerebral cortex homogenate
Details: guinea pig cerebral cortex, 2 nM (−)3H-QNB, 25° C., 80 minutes
Structures can show the parent of a compound that is named as a salt.
The scale used: pKi is minus the common logarithm of the concentration in molar units.

Briefly, pKi measured for Cc1ccc(O)c(C(CCN(C(C)C)C(C)C)c2ccccc2)c1 (single isomer, unassigned; (+)) [(A), hydrochloride] : 9.10

The reported value for CC(C)N(CCC(c1ccccc1O)c1ccccc1O)C(C)C [(B), hydrochloride] in terms of pKi is 8.82

Sure, the documented pKi for CC(C)N(CCC(c1ccccc1O)c1cc(Cl)ccc1O)C(C)C (single isomer, unassigned; (+)) [(C), hydrochloride] is 9.40

pKi reported for this compound CC(C)N(CCC(c1ccccc1)c1cc(CO)ccc1O)C(C)C (stereo not shown) : 9.15
